# assayed.target: BRD4(BD1) (Homo sapiens, UniProt O60885)
# Construct: His; made in house
# test.details: BRD4 Alphalisa binding assay
# measurement.setup: BRD4(BD1) 30 nM, biotinylated H4-tetraacetyl peptide 200 nM; read-out: BRD4 Alphascreen IC50
pIC50: −log10 of the molar value.
experimental.endpoint: pIC50

>>> experimental_result("CC(=O)NC[C@@H]1C[C@]12N=C(c1ccc(Cl)cc1)c1c(sc(C)c1C)-n1c(C)nnc12")
"> 6.30"
>>> experimental_result("CCNC(=O)[C@H]1C[C@@]12N=C(c1ccc(Cl)cc1)c1c(sc(C)c1C)-n1c(C)nnc12")
"< 6.00"
>>> experimental_result("Cc1noc2c1-c1ccc(Cl)cc1C(c1ccc(F)cc1)=NC21CC1")
"< 6.00"

Q) Query for BRD4(BD1) (Homo sapiens, UniProt O60885): what pIC50 does the record show for Cc1noc2c1-c1ccc(-c3ccc(N)nc3)cc1C(c1ccc(F)cc1)=NC21CC1 ?
A) > 6.30

Q) Reported pIC50 for BRD4(BD1) (Homo sapiens, UniProt O60885), given Cc1sc2c(c1C)C(c1ccc(Cl)cc1)=N[C@]1(C[C@H]1C)c1n[nH]c(=O)n1-2 ?
A) < 6.00

Q) Param readout = pIC50; param system = BRD4(BD1) (Homo sapiens, UniProt O60885); param query = Cc1sc2c(c1C)C(c1ccc(Cl)cc1)=NC1(CC1C)c1nnc(C)n1-2 (racemic) ; response: value
A) > 6.30
